System: NCI-H358
assay notes: Cell proliferation assay, 3D, CellTiter-Glo 3D
Format: cell-based, human
test parameters: Homo sapiens, 72 h; NCI-H358 (KRAS G12C), 3D ultra-low attachment, 3 days; read-out: anit-prolif. H358 IC50
pIC50: −log10 of the molar value.
measured property: pIC50

Cc1nc(N[C@H](C)c2cccc(C(F)F)c2F)c2cn(N3CCOCC3)c(=O)c(-c3cnn(CCO)c3)c2n1 [Example 53]    ≥ 7.00
COc1ccc(-c2c(=O)n(N3CCOCC3)cc3c(N[C@H](C)c4cccc(C(F)F)c4F)nc(C)nc23)cn1 [Example 58]    ≥ 7.00
Cc1nc(N[C@H](C)c2cccc(C(F)F)c2F)c2cn(N3CCN(C(=O)OC(C)(C)C)CC3)c(=O)cc2n1 [Example 4]    6.30 to 7.00
Cc1nc(N[C@H](C)c2cccc(C(F)F)c2F)c2cn(N3CCCC3)c(=O)cc2n1 [Example 35]    6.30 to 7.00
Cc1nc(N[C@H](C)c2cccc(C(F)F)c2F)c2cn(N3CCOCC3)c(=O)c(-c3ccc(N)nc3)c2n1 [Example 48]    6.30 to 7.00

Required: pIC50, one value per molecule below.
1. Cc1nc(N[C@H](C)c2cccc(C(F)F)c2F)c2cn(N3CCOCC3)c(=O)c(C3=CCOC3)c2n1 [Example 54]
2. Cc1nc(N[C@H](C)c2cccc(C(F)F)c2F)c2cn(N3CCN(C(=O)CC#N)CC3)c(=O)cc2n1 [Example 14]
3. Cc1nc(N[C@H](C)c2cccc(C(F)(F)F)c2)c2cn(N3CCOCC3)c(=O)cc2n1 [Example 20]
4. Cc1nc(N[C@H](C)c2cccc(C(F)F)c2F)c2cn(-n3ccnc3)c(=O)c(F)c2n1 [Example 86]

Response:
1. 6.30 to 7.00
2. 6.00 to 6.30
3. ≥ 7.00
4. 6.00 to 6.30
